# credit: patent US9981956B2

# MIC90 annotations
Test system: Candida albicans (ATCC 10231)
Experiment: Candida albicans anti-fungal MIC potency determination
Assay type: cell-based
Conditions: ATCC10231, 24 h, read-out: C. Albicans MIC90 at 24 h
Procedure: The wild type Candida albicans (ATCC 10231) was used and Fluconazole, amphotericin B, itraconazole and terbinafine were purchased from Sigma and used as positive controls. The highest assay concentration for all test compounds and fluconazole was 100 μM. […] C. albicans 3147 (ATCC 10231) glycerol frozen stock was streaked on Sabouraud dextrose agar (SDA). […] The cell density in inoculum was plate-counted to be 4.94×10^3 CFU/ml. […]

Please review the following examples before continuing.
molecule="CCC(C)n1ncn(-c2ccc(N3CCN(c4ccc(OC[C@@H]5CO[C@@](Cn6nccn6)(c6ccc(Cl)cc6)O5)cc4)CC3)cc2)c1=O (stereo partly drawn)" targetundertest="Candida albicans (ATCC 10231)" assayvalue="> 100 µM"
molecule="CCC(C)n1ncn(-c2ccc(N3CCN(c4ccc(OC[C@@H]5CO[C@@](Cn6nccn6)(c6ccccc6Cl)O5)cc4)CC3)cc2)c1=O (stereo partly drawn)" targetundertest="Candida albicans (ATCC 10231)" assayvalue="> 100 µM"

Moving on to another molecule below.
Give MIC90 for the following molecule: CCC(C)n1ncn(-c2ccc(N3CCN(c4ccc(OC[C@@H]5CO[C@@](Cn6nccn6)(c6ccc(Cl)cc6Cl)O5)cc4)CC3)cc2)c1=O (stereo partly drawn)
> 100 µM

---

Test: Mouse pharmacokinetic (PK) studies, snapshot format
Type: in vivo
Conditions: plasma, po, 20 mg/kg, 20 mg/kg in 0.5% MC/0.5% TW80 suspension vehicle
measuredProperty: Cmax
Provide a numeric answer, followed by its unit.

Fill in reported Cmax for this entry: CCC(C)n1ncn(-c2ccc(N3CCN(c4ccc(OC[C@@H]5CO[C@@](Cc6ccnnc6)(c6ccc(Cl)cc6Cl)O5)cc4)CC3)cc2)c1=O (stereo partly shown) [Compound 22]
170 nM

---

Biological target: Cyp3A4 (Homo sapiens, UniProt P08684)
Sequence (P08684 whole entry): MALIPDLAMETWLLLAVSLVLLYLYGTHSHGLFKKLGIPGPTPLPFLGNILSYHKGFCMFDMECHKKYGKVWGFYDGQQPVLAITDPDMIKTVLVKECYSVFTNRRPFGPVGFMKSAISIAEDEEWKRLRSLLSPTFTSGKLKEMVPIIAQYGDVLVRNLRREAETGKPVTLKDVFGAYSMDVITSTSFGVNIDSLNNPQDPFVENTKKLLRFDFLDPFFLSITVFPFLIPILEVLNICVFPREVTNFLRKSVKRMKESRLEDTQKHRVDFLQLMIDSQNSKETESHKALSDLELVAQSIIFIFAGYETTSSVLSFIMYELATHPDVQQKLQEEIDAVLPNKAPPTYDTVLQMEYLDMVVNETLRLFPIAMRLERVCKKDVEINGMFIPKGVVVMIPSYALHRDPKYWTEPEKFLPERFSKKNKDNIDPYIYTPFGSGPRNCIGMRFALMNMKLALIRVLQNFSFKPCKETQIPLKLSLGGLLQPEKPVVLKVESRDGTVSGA
Assay: Cyp reversible inhibition assay (human liver microsomes)
Details: Cyp 3A4 midazolam LCMS IC50, human liver microsomes; substrate midazolam
pIC50: −log10 of the molar value.
measuredProperty: pIC50

For orientation, consider the following solved cases.
molecule="CCC(C)n1ncn(-c2ccc(N3CCN(c4ccc(OC[C@@H]5CO[C@@](Cc6cccnc6)(c6ccc(Cl)cc6Cl)O5)cc4)CC3)cc2)c1=O (some centres unmarked)" measuredproperty=pIC50 assayvalue=6.74
molecule="CCC(C)n1ncn(-c2ccc(N3CCN(c4ccc(OC[C@@H]5CO[C@@](Cn6nccn6)(c6ccc(Cl)cc6Cl)O5)cc4F)CC3)cc2)c1=O (some centres unmarked)" measuredproperty=pIC50 assayvalue="< 4.30"

Tell me its pIC50 given CCC(C)n1ncn(-c2ccc(N3CCN(c4ccc(OC[C@@H]5CO[C@@](CCn6cncn6)(c6ccc(Cl)cc6Cl)O5)cc4)CC3)cc2)c1=O (some centres unmarked) as the entry.
6.43

State its pIC50: CCC(C)n1ncn(-c2ccc(N3CCN(c4ccc(OC[C@@H]5CO[C@@](Cn6nccn6)(c6ccccc6C)O5)cc4)CC3)cc2)c1=O (some centres unmarked)
< 4.30

// Input: CCC(C)n1ncn(-c2ccc(N3CCN(c4ccc(OC[C@@H]5CO[C@@](Cn6nccn6)(c6ccc(Cl)c(Cl)c6)O5)cc4)CC3)cc2)c1=O (some centres unmarked) . Output its pIC50 only.
< 4.30

Tell me its pIC50 given CCC(C)n1ncn(-c2ccc(N3CCN(c4ccc(OC[C@@H]5CO[C@@](Cn6cccn6)(c6ccc(Cl)cc6Cl)O5)cc4)CC3)cc2)c1=O (some centres unmarked) as the entry.
< 4.30

Fill in reported pIC50 for this entry: CCC(C)n1ncn(-c2ccc(N3CCN(c4ccc(OC[C@@H]5CO[C@@](Cn6nccn6)(c6ccc(Cl)cc6Cl)O5)cc4)CC3)cc2)c1=O (some centres unmarked)
< 4.30

Please report the measured pIC50 for CCC(C)n1ncn(-c2ccc(N3CCN(c4ccc(OC[C@@H]5CO[C@@](Cn6nccn6)(c6ccc(Cl)cc6)O5)cc4)CC3)cc2)c1=O (some centres unmarked)
< 4.30

---

Molecular target: Cyp3A4 (Homo sapiens)
Assay: Cyp reversible inhibition assay (human liver microsomes)
Conditions: Cyp 3A4 testosterone LCMS IC50, human liver microsomes; substrate testosterone
measuredProperty: IC50

Some molecules with recorded IC50:
molecule="CCC(C)n1ncn(-c2ccc(N3CCN(c4ccc(OC[C@@H]5CO[C@@](Cn6nccn6)(c6ccc(Cl)cc6Cl)O5)cc4)CC3)nc2)c1=O (stereo partly drawn) [Compound 24]" measuredproperty=IC50 assayvalue="> 30 µM"
molecule="CCC(C)n1ncn(-c2ccc(N3CCN(c4ccc(OC[C@@H]5CO[C@@](Cc6cncnc6)(c6ccc(Cl)cc6Cl)O5)cc4)CC3)cc2)c1=O (stereo partly drawn) [Compound 21]" measuredproperty=IC50 assayvalue="0.12 µM"
molecule="CCC(C)n1ncn(-c2ccc(N3CCN(c4ccc(OC[C@@H]5CO[C@@](Cn6nccn6)(c6ccc(Cl)c(Cl)c6)O5)cc4)CC3)cc2)c1=O (stereo partly drawn) [Compound 36]" measuredproperty=IC50 assayvalue="> 50 µM"

Answer with the recorded IC50 for the molecule listed here: CCC(C)n1ncn(-c2ccc(N3CCN(c4ccc(OC[C@@H]5CO[C@@](Cn6nccn6)(c6ccccc6C)O5)cc4)CC3)cc2)c1=O (stereo partly drawn) [Compound 41]
> 50 µM

Read off the recorded IC50 for CCC(C)n1cnn(-c2ccc(N3CCN(c4ccc(OC[C@@H]5CO[C@@](Cn6ccnn6)(c6ccc(F)cc6F)O5)cc4)CC3)cc2)c1=O (stereo partly drawn) [Compound 2]
> 30 µM

Provide measured IC50 value, entry: CCC(C)n1ncn(-c2ccc(N3CCN(c4ccc(OC[C@@H]5CO[C@@](Cc6ccnnc6)(c6ccc(Cl)cc6Cl)O5)cc4)CC3)cc2)c1=O (stereo partly drawn) [Compound 22]
> 50 µM

---

Target: Cyp3A4 (Homo sapiens, UniProt P08684)
Assay: Cyp reversible inhibition assay (human liver microsomes)
Conditions: Cyp 3A4 testosterone LCMS IC50, human liver microsomes; substrate testosterone
measuredProperty: IC50

Example cases with answers are listed next.
compound="CCC(C)n1ncn(-c2ccc(N3CCN(c4ccc(OC[C@@H]5CO[C@@](Cc6ccnnc6)(c6ccccc6)O5)cc4)CC3)cc2)c1=O (stereo partly drawn) [Compound 84]" assayvalue="1.77 µM"
compound="CCC(C)n1ncn(-c2ccc(N3CCN(c4ccc(OC[C@@H]5CO[C@@](Cn6nccn6)(c6ccc(Cl)cc6)O5)cc4)CC3)cc2)c1=O (stereo partly drawn) [Compound 30]" assayvalue="> 50 µM"

Tell me IC50 reported for CCC(C)n1ncn(-c2ccc(N3CCN(c4ccc(OC[C@@H]5CO[C@@](Cn6nccn6)(c6ccc(Cl)cc6Cl)O5)c(C#N)c4)CC3)cc2)c1=O (stereo partly drawn) [Compound 79]
> 50 µM
